All values here come from paper PMC9981206.

# Assay protocol: Mouse pharmacokinetic analysis
# Type: in vivo
# Run parameters: mouse, plasma; 0.4 mg/kg IV BID, CD-1 mice
Measured endpoint: half-life (min)
# number only, unit min dropped from output

Return reported half-life; argument: CCOc1ccc(-c2nnc([C@H]3C[C@H](NC(=O)c4cccc5nccnc45)C3)n2-c2ccccc2F)nc1 [OM-153] 35.4

====

# Assay protocol: in vivo
# Type: in vivo, CB17-SCID mice
# Run parameters: CB17-SCID, mouse, plasma; doses 0.33–10 mg/kg oral twice daily, 4 hours post last dosing, mass spectrometry
Measured endpoint: concentration at 4 h

Return reported concentration at 4 h; argument: CCOc1ccc(-c2nnc([C@H]3C[C@H](NC(=O)c4cccc5nccnc45)C3)n2-c2ccccc2F)nc1 > 10 nM

====

# Assay protocol: Mouse pharmacokinetic analysis
# Assay type: in vivo
# Run parameters: mouse, plasma; 100 mg/kg PO BID, CD-1 mice; read-out: MRT(0-24)
Measured endpoint: MRT last (h)
# number only, unit h dropped from output

Return reported MRT last; argument: CCOc1ccc(-c2nnc([C@H]3C[C@H](NC(=O)c4cccc5nccnc45)C3)n2-c2ccccc2F)nc1 [OM-153] 8.4

====

# Assay protocol: Mouse pharmacokinetic analysis
# Assay type: in vivo
# Run parameters: mouse, plasma; 10 mg/kg PO BID, CD-1 mice; read-out: Cl or Cl/F (converted)
Measured endpoint: CL/F (mL/min/kg)
# number only, unit mL/min/kg dropped from output

Return reported CL/F; argument: CCOc1ccc(-c2nnc([C@H]3C[C@H](NC(=O)c4cccc5nccnc45)C3)n2-c2ccccc2F)nc1 [OM-153] 16.7

====

# Assay protocol: Mouse pharmacokinetic analysis
# Type: in vivo
# Run parameters: mouse, plasma; 100 mg/kg PO BID, CD-1 mice; read-out: F (fraction absorbed/bioavailability)
Measured endpoint: bioavailability
Field: value (include unit after the number)

Return reported bioavailability; argument: CCOc1ccc(-c2nnc([C@H]3C[C@H](NC(=O)c4cccc5nccnc45)C3)n2-c2ccccc2F)nc1 130%

====

# Assay protocol: Mouse pharmacokinetic analysis
# Type: in vivo
# Run parameters: mouse, plasma; 10 mg/kg PO BID, CD-1 mice; read-out: MRT(0-24)
Measured endpoint: MRT last (h)
# number only, unit h dropped from output

Return reported MRT last; argument: CCOc1ccc(-c2nnc([C@H]3C[C@H](NC(=O)c4cccc5nccnc45)C3)n2-c2ccccc2F)nc1 [OM-153] 5.8

====

# Assay protocol: Mouse pharmacokinetic analysis
# Type: in vivo
# Run parameters: mouse, plasma; 0.4 mg/kg IV BID, CD-1 mice; read-out: MRT(0-24)
Measured endpoint: MRT last (h)
# number only, unit h dropped from output

Return reported MRT last; argument: CCOc1ccc(-c2nnc([C@H]3C[C@H](NC(=O)c4cccc5nccnc45)C3)n2-c2ccccc2F)nc1 3.6

====

# Assay protocol: Mouse pharmacokinetic analysis
# Type: in vivo
# Run parameters: mouse, plasma; 10 mg/kg PO BID, CD-1 mice
Measured endpoint: half-life
Field: value (include unit after the number)

Return reported half-life; argument: CCOc1ccc(-c2nnc([C@H]3C[C@H](NC(=O)c4cccc5nccnc45)C3)n2-c2ccccc2F)nc1 [OM-153] 2.7 h

====

# Assay protocol: in vivo
# Assay type: in vivo, CB17-SCID mice
# Run parameters: CB17-SCID, mouse, tumor; doses 0.33–10 mg/kg oral twice daily, 4 hours post last dosing, mass spectrometry
Measured endpoint: concentration at 4 h

Return reported concentration at 4 h; argument: CCOc1ccc(-c2nnc([C@H]3C[C@H](NC(=O)c4cccc5nccnc45)C3)n2-c2ccccc2F)nc1 [OM-153] > 10 nM
